Entries annotated with measured kon
Biological target: T1, human CD19 antigen (human, UniProt P15391 20-291, limits assumed)
T1 sequence (looked up): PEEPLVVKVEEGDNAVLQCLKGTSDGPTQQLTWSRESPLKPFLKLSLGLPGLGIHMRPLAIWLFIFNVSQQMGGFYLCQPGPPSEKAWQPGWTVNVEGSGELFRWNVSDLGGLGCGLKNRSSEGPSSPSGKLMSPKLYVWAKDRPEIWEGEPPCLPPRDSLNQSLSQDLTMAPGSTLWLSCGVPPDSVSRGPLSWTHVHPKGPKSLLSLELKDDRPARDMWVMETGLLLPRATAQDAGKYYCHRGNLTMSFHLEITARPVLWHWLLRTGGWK
Assay: SPR (Biacore), antibody captured via Fc
Hi! Could you send only the number? It should be in M⁻¹ s⁻¹, unit omitted.

Answered cases to consult:
INSERT INTO measurements (binder, assay_value) VALUES
  ('humanized CD19 antibody VH2 + VL7 (antibody, V domains shown) VH: QVQLQESGPGLVKPSQTLSLTCTVSGVSLPDYGVSWIRQPPGKGLEWIGVIWGSETTYYNSALKSRVTISKDTSKNQVSLKLSSVTAADTAVYYCAKHYYYGGSYAMDYWGQGTTVTVSS VL: DIQMTQSPSSLSASVGDRVTISCRASQDISKYLNWYQQKPDGTVKLLIYHTSRLHSGVPSRFSGSGSGTDFTFTISSLQPEDIATYFCQQGNTLPYTFGGGTKLEIK', 181000),
  ('humanized CD19 antibody VH2 + VL6 (antibody, V domains shown) VH: QVQLQESGPGLVKPSQTLSLTCTVSGVSLPDYGVSWIRQPPGKGLEWIGVIWGSETTYYNSALKSRVTISKDTSKNQVSLKLSSVTAADTAVYYCAKHYYYGGSYAMDYWGQGTTVTVSS VL: DIQMTQSPSSLSASVGDRVTITCRASQDISKYLNWYQQKPGGAVKLLIYHTSRLHSGVPSRFSGSGSGTDYTFTISSLQPEDIATYFCQQGNTLPYTFGGGTKLEIK', 179000),
  ('humanized CD19 antibody VH8 + VL6 (antibody, V domains shown) VH: QVKLQESGPGLVKPSETLSLTCTVSGVSLPDYGVSWIRQPPGKGLEWIGVIWGSETTYYNSALKSRVTISKDTSKSQVFLKLSSVTAADTAVYYCAKHYYYGGSYAMDYWGQGTLVTVSS VL: DIQMTQSPSSLSASVGDRVTITCRASQDISKYLNWYQQKPGGAVKLLIYHTSRLHSGVPSRFSGSGSGTDYTFTISSLQPEDIATYFCQQGNTLPYTFGGGTKLEIK', 117000);

// query Give its kon value. Item: humanized CD19 antibody VH7 + VL6 (antibody, V domains shown) VH: QVKLQESGPGLVKPSETLSLTCTVSGVSLPDYGVSWIRQPPGKGLEWLGVIWGSETTYYNSALKSRLTISKDTSKNQFSLKLSSVTAADTAVYYCAKHYYYGGSYAMDYWGQGTLVTVSS VL: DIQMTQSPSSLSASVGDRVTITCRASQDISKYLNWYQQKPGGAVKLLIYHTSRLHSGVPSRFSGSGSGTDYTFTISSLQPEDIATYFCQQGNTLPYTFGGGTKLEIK
// result 130000

// query Item humanized CD19 antibody VH9 + VL5 (antibody, V domains shown, also called H9L5) VH: QVQLQESGPGLVKPSETLSLTCTVSGVSLPDYGVSWIRQPPGKGLEWLGVIWGSETTYYNSALKSRLTISKDTSKSQVSLKLSSVTAADTAVYYCAKHYYYGGSYAMDYWGQGTLVTVSS VL: DIQMTQSPSSLSASVGDRVTISCRASQDISKYLNWYQQKPGKAPKLLIYHTSRLHSGVPSRFSGSGSGTDYTFTISSLQPEDIATYFCQQGNTLPYTFGGGTKLEIK has what recorded kon?
// result 109000
